biological target: STK35 (human); experiment: KINOMEscan competition binding; details: compound 10.0 µM
Hi there, I'd appreciate the recorded kinase still bound, per cent of control for every entry that follows.
One number for each entry, in %.

Take a look at these entries with their results.
N#Cc1c(NC(=O)c2cccc3ccccc23)sc2c1CCCC2 ... 64
C=CC(=O)Nc1cccc(Nc2nc(N[C@H]3CC[C@H](N(C)C)CC3)nc3c2ncn3C(C)C)c1 ... 80
CCCS(=O)(=O)Nc1ccc(F)c(C(=O)c2c[nH]c3ncc(-c4ccc(Cl)cc4)cc23)c1F ... 100
Cc1ccc2nc(NCCN)c3ncc(C)n3c2c1 ... 90
Cc1ccc(NC(=O)c2cccc(C(C)(C)C#N)c2)cc1Nc1ccc2ncn(C)c(=O)c2c1 ... 75

Below are some compounds; for each one, tell me its kinase still bound, per cent of control.
1. O=C1Nc2ccc(I)cc2/C1=C/c1cc(Br)c(O)c(Br)c1
2. CCC(=O)N1CCN(c2ccc(-n3c(=O)ccc4cnc5ccc(-c6cnc7ccccc7c6)cc5c43)cc2C(F)(F)F)CC1

Return:
1: 100; 2: 18

Below are some compounds; for each one, tell me its kinase still bound, per cent of control.
1. Cc1ccc(C(=O)Nc2cccc(C(F)(F)F)c2)cc1Nc1cncc(C(N)=O)c1
2. Cc1cc([C@@H](C)Nc2ccccc2C(=O)O)c2nc(N3CCOCC3)cc(=O)n2c1

Return:
100
95

###

Hi there, I'd appreciate the recorded kinase still bound, per cent of control for every entry that follows.
target: CIT (human) (UniProt O14578); assay: KINOMEscan competition binding; details: compound 10.0 µM
Sequence (O14578 whole entry, looked up): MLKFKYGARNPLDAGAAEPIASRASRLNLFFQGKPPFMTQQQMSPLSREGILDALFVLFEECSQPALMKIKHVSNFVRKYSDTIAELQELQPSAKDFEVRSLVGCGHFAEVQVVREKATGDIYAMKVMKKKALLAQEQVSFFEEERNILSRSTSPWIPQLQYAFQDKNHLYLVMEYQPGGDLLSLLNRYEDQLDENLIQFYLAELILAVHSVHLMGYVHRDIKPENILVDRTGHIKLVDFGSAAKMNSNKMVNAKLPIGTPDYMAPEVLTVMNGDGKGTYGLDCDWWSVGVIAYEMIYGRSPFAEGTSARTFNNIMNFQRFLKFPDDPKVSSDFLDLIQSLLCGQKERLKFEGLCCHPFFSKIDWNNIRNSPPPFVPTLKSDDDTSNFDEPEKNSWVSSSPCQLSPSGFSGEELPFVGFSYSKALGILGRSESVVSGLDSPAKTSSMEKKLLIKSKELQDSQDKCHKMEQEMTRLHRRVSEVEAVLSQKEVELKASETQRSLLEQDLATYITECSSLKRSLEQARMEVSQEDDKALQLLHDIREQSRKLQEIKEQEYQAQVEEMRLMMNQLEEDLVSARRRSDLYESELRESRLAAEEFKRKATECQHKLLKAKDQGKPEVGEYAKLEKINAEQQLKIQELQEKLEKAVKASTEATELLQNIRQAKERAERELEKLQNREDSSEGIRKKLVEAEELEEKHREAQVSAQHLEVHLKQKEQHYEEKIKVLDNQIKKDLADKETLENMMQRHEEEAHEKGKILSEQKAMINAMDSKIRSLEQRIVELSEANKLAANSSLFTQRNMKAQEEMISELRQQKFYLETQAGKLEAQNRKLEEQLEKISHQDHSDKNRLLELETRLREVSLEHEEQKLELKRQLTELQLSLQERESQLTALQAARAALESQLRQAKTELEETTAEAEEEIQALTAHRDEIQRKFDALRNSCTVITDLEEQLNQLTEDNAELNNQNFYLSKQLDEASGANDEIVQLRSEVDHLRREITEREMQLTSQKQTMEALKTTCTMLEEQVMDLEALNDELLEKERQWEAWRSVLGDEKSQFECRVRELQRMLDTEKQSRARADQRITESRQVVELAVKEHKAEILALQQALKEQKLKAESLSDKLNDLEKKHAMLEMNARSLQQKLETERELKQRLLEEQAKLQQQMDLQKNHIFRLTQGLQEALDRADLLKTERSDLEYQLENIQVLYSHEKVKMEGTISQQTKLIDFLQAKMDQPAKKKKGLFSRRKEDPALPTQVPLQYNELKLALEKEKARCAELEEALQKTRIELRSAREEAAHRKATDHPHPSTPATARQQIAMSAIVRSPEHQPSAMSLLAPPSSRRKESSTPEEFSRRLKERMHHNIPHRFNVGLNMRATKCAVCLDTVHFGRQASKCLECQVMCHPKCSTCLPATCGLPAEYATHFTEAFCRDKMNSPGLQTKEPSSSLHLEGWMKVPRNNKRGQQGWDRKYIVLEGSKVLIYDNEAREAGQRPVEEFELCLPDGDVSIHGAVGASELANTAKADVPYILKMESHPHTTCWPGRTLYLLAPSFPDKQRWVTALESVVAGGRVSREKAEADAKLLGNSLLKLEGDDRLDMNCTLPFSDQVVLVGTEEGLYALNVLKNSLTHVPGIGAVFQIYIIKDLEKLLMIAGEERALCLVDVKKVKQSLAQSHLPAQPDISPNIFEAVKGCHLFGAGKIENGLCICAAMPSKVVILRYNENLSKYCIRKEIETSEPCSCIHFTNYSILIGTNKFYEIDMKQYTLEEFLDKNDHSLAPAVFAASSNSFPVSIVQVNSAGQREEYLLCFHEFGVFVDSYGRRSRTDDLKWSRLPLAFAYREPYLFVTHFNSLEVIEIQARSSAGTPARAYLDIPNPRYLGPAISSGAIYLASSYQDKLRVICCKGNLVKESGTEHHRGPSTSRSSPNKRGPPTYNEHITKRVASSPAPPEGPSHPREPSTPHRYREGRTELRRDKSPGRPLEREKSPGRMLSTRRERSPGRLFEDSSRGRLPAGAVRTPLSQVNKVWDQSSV
One number for each entry, in %.

O=C(O)c1ccc(Nc2ncc3c(n2)-c2ccc(Cl)cc2C(c2c(F)cccc2F)=NC3)cc1 ... 37
Cc1cc([C@@H](C)Nc2ccccc2C(=O)O)c2nc(N3CCOCC3)cc(=O)n2c1 ... 89
Cn1c(=O)n(-c2ccc(C(C)(C)C#N)cc2)c2c3cc(-c4cnc5ccccc5c4)ccc3ncc21 ... 100

Below are some compounds; for each one, tell me its kinase still bound, per cent of control.
1. Cc1ccc2nc(NCCN)c3ncc(C)n3c2c1
2. CCOc1cc2ncc(C#N)c(Nc3ccc(OCc4ccccn4)c(Cl)c3)c2cc1NC(=O)/C=C/CN(C)C
3. CCCS(=O)(=O)Nc1ccc(F)c(C(=O)c2c[nH]c3ncc(-c4ccc(Cl)cc4)cc23)c1F
4. C[C@@H](Oc1cc(-n2cnc3ccc(CN4CCN(C)CC4)cc32)sc1C(N)=O)c1ccccc1C(F)(F)F
5. C=CC(=O)Nc1cccc(Nc2nc(N[C@H]3CC[C@H](N(C)C)CC3)nc3c2ncn3C(C)C)c1
6. C=CC(=O)Nc1cc(NC(=O)c2ccc(C)c(NC(=O)c3ccno3)c2)cc(C(F)(F)F)c1
7. N#Cc1c(NC(=O)c2cccc3ccccc23)sc2c1CCCC2
8. Cc1ccc(C(=O)Nc2cccc(C(F)(F)F)c2)cc1Nc1cncc(C(N)=O)c1

Return:
100
95
30
87
50
97
100
100

###

target: EPHA1 (human) (UniProt P21709); assay: KINOMEscan competition binding; settings: compound 10.0 µM
Sequence (P21709 whole entry, looked up): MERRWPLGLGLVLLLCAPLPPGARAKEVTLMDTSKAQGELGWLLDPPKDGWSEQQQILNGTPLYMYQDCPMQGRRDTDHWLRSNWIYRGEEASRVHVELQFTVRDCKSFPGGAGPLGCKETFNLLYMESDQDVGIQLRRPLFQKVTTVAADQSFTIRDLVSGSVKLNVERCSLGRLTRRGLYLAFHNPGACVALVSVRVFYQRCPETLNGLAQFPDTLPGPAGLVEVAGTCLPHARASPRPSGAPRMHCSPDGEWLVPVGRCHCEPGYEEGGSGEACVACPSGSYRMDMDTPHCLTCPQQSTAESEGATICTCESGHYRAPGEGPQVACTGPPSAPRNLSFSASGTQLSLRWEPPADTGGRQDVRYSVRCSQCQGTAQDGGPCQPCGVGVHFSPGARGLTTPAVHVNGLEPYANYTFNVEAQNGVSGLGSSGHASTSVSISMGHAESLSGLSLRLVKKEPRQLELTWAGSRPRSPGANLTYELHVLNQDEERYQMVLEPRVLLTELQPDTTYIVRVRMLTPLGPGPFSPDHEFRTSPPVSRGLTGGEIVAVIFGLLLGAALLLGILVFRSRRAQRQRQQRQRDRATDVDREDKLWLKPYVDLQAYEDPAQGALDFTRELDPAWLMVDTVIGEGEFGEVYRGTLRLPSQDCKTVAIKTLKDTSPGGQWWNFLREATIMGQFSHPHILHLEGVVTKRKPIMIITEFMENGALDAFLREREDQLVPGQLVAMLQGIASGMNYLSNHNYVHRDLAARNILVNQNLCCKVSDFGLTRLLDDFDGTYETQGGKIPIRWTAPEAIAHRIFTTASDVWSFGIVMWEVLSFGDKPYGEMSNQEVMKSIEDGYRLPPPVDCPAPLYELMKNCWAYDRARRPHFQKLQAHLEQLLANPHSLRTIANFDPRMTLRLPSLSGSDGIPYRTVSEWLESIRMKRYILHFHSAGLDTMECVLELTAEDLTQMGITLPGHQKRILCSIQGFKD
Hi there, I'd appreciate the recorded kinase still bound, per cent of control for every entry that follows.
Numbers only, in %.

O=C(NC1CC1)c1cccc(-c2ccc3c(NC(=O)C4CC4)n[nH]c3c2)c1 ... 98
O=C(NOC[C@H](O)CO)c1ccc(F)c(F)c1Nc1ccc(I)cc1F ... 91
Cc1ccc(NC(=O)c2cccc(C(C)(C)C#N)c2)cc1Nc1ccc2ncn(C)c(=O)c2c1 ... 10
CCCS(=O)(=O)Nc1ccc(F)c(C(=O)c2c[nH]c3ncc(-c4ccc(Cl)cc4)cc23)c1F ... 82
Cc1cc([C@@H](C)Nc2ccccc2C(=O)O)c2nc(N3CCOCC3)cc(=O)n2c1 ... 100

# ---- query molecule ----
Enquiry: Which kinase still bound, per cent of control is listed for CC[C@@H]1C(=O)N(C)c2cnc(Nc3ccc(C(=O)NC4CCN(C)CC4)cc3OC)nc2N1C1CCCC1 ?
Return: 100
